For each of the compounds below, state its IC50.
# Assayed System: hROMK (hKir1.1) (Homo sapiens)
# Construct: expressed in transfected cells
# Sequence (P48048 1-391): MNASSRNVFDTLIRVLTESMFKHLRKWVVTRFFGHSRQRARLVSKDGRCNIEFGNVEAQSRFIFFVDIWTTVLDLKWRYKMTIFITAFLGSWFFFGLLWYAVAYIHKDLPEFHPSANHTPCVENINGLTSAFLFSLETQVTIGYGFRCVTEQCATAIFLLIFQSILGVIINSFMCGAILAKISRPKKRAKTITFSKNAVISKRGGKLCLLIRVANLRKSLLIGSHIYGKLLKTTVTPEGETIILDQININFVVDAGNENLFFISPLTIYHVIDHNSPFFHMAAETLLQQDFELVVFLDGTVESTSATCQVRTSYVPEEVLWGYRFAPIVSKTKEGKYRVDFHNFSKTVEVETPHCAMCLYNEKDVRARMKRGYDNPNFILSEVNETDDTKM
# Test: Thallium Flux Assay
# Type: cell-based
# Assay Conditions: HEK293 cells stably expressing hROMK (hKir1.1), FLIPR-Tetra; read-out: Thallium Flux IC50

Record COc1cc(F)c([C@@H]2CN3CCN(C(=O)Cc4cnc(-n5cnnn5)nc4)C[C@H]3CO2)cc1C#N , field IC50: 350 nM

IC50 reported for this compound Cc1cc(CC(=O)N2CCN3C[C@H](c4ccc(F)c(C#N)c4C)OC[C@H]3C2)cnc1-n1cnnn1 : 280 nM

IC50 measured on Cc1c([C@H]2CN3CCN(C(=O)Cc4cnc(-n5cnnn5)c(F)c4)C[C@@H]3CO2)ccc(F)c1C#N = 140 nM

Recorded result, Cc1c([C@@H]2CN3CCN(C(=O)Cc4ccc(-n5cnnn5)nc4)C[C@H]3CO2)csc1C#N , IC50: 40 nM

Recorded IC50 (compound COc1c([C@@H]2CN3CCN(C(=O)Cc4cnc(-n5cnnn5)nc4)C[C@H]3CO2)ccc(F)c1C#N ): 120 nM

GET /value?item= Cc1c(C#N)cccc1[C@@H]1CN2CCN(C(=O)Cc3cnc(-n4cnnn4)nc3)C[C@H]2CO1 &field=IC50 returns 160 nM

Record summary for Cc1c([C@H]2CN3CCN(C(=O)Cc4ccc(-n5cnnn5)nc4)C[C@H]3CS2)ccc(F)c1C#N : reported IC50 = 180 nM
